assay: self-splicing fitness, log relative to wild type (ln ratio); higher = more splicing; Tetrahymena group I intron in knt gene, E. coli kanamycin selection, DiMSum; sequences stand for … in CUCUCU…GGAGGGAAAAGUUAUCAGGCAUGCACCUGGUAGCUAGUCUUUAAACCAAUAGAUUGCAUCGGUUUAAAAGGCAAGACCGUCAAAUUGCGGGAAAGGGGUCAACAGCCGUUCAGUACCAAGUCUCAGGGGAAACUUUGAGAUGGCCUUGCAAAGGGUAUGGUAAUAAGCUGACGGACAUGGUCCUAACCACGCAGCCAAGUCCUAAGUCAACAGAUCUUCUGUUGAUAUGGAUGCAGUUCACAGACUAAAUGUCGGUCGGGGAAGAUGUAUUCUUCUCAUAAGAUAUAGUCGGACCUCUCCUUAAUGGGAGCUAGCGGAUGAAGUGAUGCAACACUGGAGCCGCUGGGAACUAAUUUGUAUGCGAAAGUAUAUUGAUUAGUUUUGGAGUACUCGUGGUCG; details: 30 °C;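 also: selection with 25 µg/mL kanamycin versus none on LB agar overnight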
Assignment: determine reported self-splicing fitness (ln) for the given sequences.

What value of self-splicing fitness (ln) has been reported for the following sequence? `CGACAGCAAUAUUACGUACU` -1.26

# self-splicing fitness (ln) lookup, item `GUUAAGCAAUAUUACGUCUC` -0.932

Which self-splicing fitness (ln) is listed for `GGUAAGCAAUAUUACGUAGG` ? -2.78

I would be grateful if you could share the reported self-splicing fitness (ln) for `ACAAAGCAAUAUUACGGACG` . -0.851

# get_value(readout='self-splicing fitness (ln)', item= `CUAGAGCAAUAUUACGUUAU` ) -3.29

Consider the sequence `AAACAGCAAUAUUACGGACG` and give its measured self-splicing fitness (ln). -2.25

If you can, please state the reported self-splicing fitness (ln) value of `CGACAGCAAUAUUACGCCUG` . -0.901

Name the recorded self-splicing fitness (ln) for `GUUGAGCAAUAUUACGCUUA` . -2.55

Entry source: the supplement of paper PMC7877785
